Test system: Trichophyton rubrum
Assay: Antifungal activity against Trichophyton rubrum
Format: functional
Please provide measured MIC for the entries that follow.

Returns the measured MIC for the input compound. Input: `Cc1ccc2c(c1)COB2O`
8 µg/mL

Returns the measured MIC for the input compound. Input: `OB1OCc2cc(C(F)(F)F)ccc21`
8 µg/mL

Returns the measured MIC for the input compound. Input: `N#Cc1ccc2c(c1)COB2O`
16 µg/mL

Returns the measured MIC for the input compound. Input: `OB1OCc2cc(F)c(F)cc21`
4 µg/mL

Returns the measured MIC for the input compound. Input: `Fc1ccc2c(c1)COB2c1cccc(Cl)c1`
4 µg/mL

Returns the measured MIC for the input compound. Input: `Cc1cscc1B1OCc2cc(F)ccc21`
1 µg/mL

Returns the measured MIC for the input compound. Input: OB1OCc2ccccc21 [BENZOXABOROLE]
8 µg/mL

Returns the measured MIC for the input compound. Input: `Fc1ccc(B2OCc3cc(F)ccc32)cc1`
4 µg/mL
